Please go through the items and note down their IC50.
System: NCI-H82 cell
methodNotes: Cell viability (Promega CellTiter-Glo) of NCI-H82 cell
Assay type: cell-based
experimentalConditions: Homo sapiens; NCI-H82 cell, Table 1; read-out: IC50
Express your answer in nM, writing the number without its unit.

Documented IC50 of Cc1ccc(C(=O)C[n+]2ccc(N3Cc4ccccc4C3)cc2)cc1 [AB24956] : 770

Documented IC50 of O=C(C[n+]1ccc(NCc2ccccc2)cc1)c1ccc(OC(F)(F)F)cc1 [AB24810A] : 1340

Documented IC50 of Cn1ccc2c[n+](C3CCc4ccc(OC(F)(F)F)cc4C3=O)ccc21 (stereo not shown) [AB27154] : 870

Documented IC50 of O=C1c2cc([N+](=O)[O-])ccc2CCC1[n+]1ccc(NCc2ccccc2)cc1 (stereo not shown) [AB24920] : 1010
